Tested on: integrin α4β1
protocolDetails: Integrin α4β1-mediated cell adhesion assay (Jurkat cells on VCAM)
Type: cell-based
measurementSetup: read-out: Jurkat (α4β1)/VCAM-1 IC50; Jurkat cells, VCAM coated plate

{"molecule": "COc1cc(C)c(-c2c(F)c(C(CC(=O)O)NC(=O)C(CC(C)C)n3cc(CCN(C)C)c(C(F)(F)F)cc3=O)c(F)c3c2CCC3)c(C)c1 (single isomer, unassigned) [Compound 39-2]", "systemUnderTest": "integrin α4β1", "IC50": "> 500 nM"}

----------
systemUnderTest: integrin α4β7 (Homo sapiens, UniProt P13612+P26010)
Sequence (P13612 34-1032): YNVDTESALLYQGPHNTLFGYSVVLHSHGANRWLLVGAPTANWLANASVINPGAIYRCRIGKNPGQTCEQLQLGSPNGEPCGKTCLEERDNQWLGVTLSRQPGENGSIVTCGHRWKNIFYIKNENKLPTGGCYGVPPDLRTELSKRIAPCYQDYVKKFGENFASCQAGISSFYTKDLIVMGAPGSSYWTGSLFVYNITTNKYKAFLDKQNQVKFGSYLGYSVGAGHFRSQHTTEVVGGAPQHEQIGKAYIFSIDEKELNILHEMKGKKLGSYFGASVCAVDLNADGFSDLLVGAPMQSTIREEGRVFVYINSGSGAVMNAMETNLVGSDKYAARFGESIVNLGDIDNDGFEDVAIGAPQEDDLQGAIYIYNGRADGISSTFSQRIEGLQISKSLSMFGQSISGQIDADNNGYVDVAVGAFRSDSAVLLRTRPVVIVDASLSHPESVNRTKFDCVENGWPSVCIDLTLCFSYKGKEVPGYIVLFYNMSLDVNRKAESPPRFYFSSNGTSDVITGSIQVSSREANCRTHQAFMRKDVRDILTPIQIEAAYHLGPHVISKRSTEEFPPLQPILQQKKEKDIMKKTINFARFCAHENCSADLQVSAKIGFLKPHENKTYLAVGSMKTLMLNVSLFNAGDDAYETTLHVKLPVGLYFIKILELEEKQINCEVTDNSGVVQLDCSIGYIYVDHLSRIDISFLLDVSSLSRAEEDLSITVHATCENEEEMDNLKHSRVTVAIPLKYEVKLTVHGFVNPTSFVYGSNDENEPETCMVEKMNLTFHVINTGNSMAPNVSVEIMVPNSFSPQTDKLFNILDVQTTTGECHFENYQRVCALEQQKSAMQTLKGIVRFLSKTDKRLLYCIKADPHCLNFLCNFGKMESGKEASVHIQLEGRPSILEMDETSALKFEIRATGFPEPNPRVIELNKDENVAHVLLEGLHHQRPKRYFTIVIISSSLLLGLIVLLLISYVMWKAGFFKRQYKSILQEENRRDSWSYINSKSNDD
Sequence (P26010 20-798): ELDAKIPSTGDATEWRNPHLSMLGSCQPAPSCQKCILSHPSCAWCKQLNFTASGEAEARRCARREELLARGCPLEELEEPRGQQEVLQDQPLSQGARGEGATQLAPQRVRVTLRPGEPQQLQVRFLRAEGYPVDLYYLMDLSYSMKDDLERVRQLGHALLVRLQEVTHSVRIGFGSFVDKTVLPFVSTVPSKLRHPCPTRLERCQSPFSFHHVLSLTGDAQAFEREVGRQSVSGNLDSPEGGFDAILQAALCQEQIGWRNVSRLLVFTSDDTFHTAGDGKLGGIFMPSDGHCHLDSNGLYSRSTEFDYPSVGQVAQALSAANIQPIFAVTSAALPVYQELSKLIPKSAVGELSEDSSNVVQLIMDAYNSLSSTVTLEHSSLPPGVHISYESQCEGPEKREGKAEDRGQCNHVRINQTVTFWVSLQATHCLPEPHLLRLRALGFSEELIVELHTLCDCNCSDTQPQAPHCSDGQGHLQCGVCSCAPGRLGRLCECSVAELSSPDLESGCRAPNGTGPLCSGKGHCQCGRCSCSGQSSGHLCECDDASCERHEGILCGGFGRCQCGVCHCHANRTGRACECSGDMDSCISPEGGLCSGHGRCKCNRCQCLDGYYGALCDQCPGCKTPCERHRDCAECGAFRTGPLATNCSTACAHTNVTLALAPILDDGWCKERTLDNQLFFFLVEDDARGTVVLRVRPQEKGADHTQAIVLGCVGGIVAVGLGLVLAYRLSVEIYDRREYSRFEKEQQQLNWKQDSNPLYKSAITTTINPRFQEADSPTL
protocolDetails: Integrin α4β7 cell adhesion assay (RPMI8866 cells on MAdCAM-1)
Format: cell-based
measurementSetup: RPMI8866 cells, MAdCAM-1 coated plate; reported as class symbol; read-out: RPMI-8866 (α4β7)/MadCAM-1 IC50
Structures can show the parent of a compound that is named as a salt.
We begin with a simple list: items and their reported IC50.
quantityKind: IC50

{"compound": "CC#Cc1cc(-c2c(C)cccc2C)c(F)c(C(CC(=O)O)NC(=O)C(CC(C)C)n2cc(CC3CCN(C(C)C)CC3)c(C(F)(F)F)cc2=O)c1F (single isomer, unassigned) [Trifluoroacetate salt of compound 23-2]", "reportedValue": "< 10 nM"}
{"compound": "CC#Cc1cc(-c2c(C)cccc2C)c(F)c(C(CC(=O)O)NC(=O)[C@H](CC(C)C)n2cc(CCN3CCC4(CC4)C3)c(C(F)(F)F)cc2=O)c1F (single isomer, unassigned) [Compound 6-2]", "reportedValue": "< 10 nM"}
{"compound": "Cc1cc(F)cc(C)c1-c1c(F)c(C(CC(=O)O)NC(=O)[C@H](CC(C)C)n2cc(CCC3CCCN3C)c(C(F)(F)F)cc2=O)c(F)c2c1CCC2 (single isomer, unassigned) [Trifluoroacetate salt of compound 28-2]", "reportedValue": "< 10 nM"}

----------
System: integrin α4β1
protocolDetails: Integrin α4β1-mediated cell adhesion assay (Jurkat cells on VCAM)
Format: cell-based
measurementSetup: selectivity ratio of Jurkat (α4β1)/VCAM-1 IC50 to RPMI-8866 (α4β7)/MadCAM-1 IC50
Structures can show the parent of a compound that is named as a salt.
Here the recorded α4β1/α4β7 is given for each entry.

{"compound": "CC#Cc1cc(-c2c(C)cccc2C)c(F)c(C(CC(=O)O)NC(=O)C(CC(C)C)n2cc(CCN(C)CC3CC3(F)F)c(C(F)(F)F)cc2=O)c1F (single isomer, unassigned)", "modifier": "=", "α4β1/α4β7": 182}
{"compound": "CC#Cc1cc(-c2c(C)cccc2C)c(F)c(C(CC(=O)O)NC(=O)C(CC(C)C)n2cc(CC3CCN(C(C)C)CC3)c(C(F)(F)F)cc2=O)c1F (single isomer, unassigned) [Trifluoroacetate salt of compound 23-2]", "modifier": "=", "α4β1/α4β7": 310}
{"compound": "Cc1cc(F)cc(C)c1-c1cc(C(CC(=O)O)NC(=O)C(CC(C)C)n2cc(CCN(C)CC3CC3(F)F)c(C(F)(F)F)cc2=O)cc2c1CCC2 (single isomer, unassigned)", "modifier": ">", "α4β1/α4β7": 50}
{"compound": "CC#Cc1cc(-c2c(C)cccc2C)c(F)c(C(CC(=O)O)NC(=O)C(CC(C)C)n2cc(CCC3CCN(C)C3)c(C(F)(F)F)cc2=O)c1F (single isomer, unassigned) [Trifluoroacetate salt of compound 27-2]", "modifier": "=", "α4β1/α4β7": 133}

----------
systemUnderTest: integrin α4β7 (Homo sapiens, UniProt P13612+P26010)
Sequence (P13612 34-1032): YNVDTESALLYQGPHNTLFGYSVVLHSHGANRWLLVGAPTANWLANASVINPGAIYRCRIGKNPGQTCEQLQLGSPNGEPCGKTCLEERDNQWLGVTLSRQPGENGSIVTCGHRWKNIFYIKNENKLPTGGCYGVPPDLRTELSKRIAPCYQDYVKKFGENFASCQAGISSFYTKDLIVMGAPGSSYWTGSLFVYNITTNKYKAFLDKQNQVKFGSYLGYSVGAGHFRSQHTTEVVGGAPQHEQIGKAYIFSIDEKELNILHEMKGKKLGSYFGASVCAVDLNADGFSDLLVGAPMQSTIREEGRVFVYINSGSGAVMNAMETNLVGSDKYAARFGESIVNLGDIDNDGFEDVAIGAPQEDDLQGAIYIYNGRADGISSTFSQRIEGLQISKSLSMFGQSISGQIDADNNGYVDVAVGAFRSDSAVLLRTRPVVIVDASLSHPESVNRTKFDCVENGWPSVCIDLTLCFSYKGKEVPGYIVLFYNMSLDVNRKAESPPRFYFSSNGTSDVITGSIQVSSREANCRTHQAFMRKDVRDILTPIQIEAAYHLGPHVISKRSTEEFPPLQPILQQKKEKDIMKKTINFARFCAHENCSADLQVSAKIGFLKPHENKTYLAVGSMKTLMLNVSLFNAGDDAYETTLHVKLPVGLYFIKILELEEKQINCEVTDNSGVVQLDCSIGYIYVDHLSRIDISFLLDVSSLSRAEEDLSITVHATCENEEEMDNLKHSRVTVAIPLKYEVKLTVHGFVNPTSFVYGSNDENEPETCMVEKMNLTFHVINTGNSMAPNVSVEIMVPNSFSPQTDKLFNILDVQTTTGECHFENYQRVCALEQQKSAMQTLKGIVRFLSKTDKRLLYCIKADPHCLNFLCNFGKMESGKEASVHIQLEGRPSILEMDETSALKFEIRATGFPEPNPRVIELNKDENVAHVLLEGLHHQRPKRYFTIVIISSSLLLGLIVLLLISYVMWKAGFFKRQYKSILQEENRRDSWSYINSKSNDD
Sequence (P26010 20-798): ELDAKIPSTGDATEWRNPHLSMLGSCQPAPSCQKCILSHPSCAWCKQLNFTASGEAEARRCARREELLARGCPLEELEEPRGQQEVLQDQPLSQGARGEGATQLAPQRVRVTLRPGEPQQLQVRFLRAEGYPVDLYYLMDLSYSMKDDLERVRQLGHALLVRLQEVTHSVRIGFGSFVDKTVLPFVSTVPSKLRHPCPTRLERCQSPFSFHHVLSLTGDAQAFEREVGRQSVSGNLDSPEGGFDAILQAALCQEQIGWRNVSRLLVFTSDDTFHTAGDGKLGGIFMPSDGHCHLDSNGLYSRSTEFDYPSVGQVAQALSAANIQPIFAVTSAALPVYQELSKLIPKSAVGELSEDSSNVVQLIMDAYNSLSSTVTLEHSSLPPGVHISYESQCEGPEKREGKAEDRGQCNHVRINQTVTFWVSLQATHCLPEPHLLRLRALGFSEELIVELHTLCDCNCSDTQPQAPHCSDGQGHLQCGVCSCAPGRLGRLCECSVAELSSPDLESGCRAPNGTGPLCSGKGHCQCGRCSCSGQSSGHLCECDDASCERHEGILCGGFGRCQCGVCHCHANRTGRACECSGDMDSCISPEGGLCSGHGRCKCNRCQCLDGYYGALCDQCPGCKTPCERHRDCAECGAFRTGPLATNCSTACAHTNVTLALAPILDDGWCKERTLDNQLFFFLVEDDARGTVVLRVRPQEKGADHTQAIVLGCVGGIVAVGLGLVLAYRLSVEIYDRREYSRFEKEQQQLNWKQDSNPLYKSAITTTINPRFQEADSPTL
protocolDetails: Integrin α4β7 cell adhesion assay (RPMI8866 cells on MAdCAM-1)
Type: cell-based
measurementSetup: RPMI8866 cells, MAdCAM-1 coated plate; numeric value or bound; read-out: RPMI-8866 (α4β7)/MadCAM-1 IC50
pIC50: −log10 of the molar value. Structures can show the parent of a compound that is named as a salt.
Some compounds, each annotated with its measured pIC50.
quantityKind: pIC50

{"compound": "Cc1cc(F)cc(C)c1-c1cc(C(CC(=O)O)NC(=O)[C@H](CC(C)C)n2cc(CC3CN(CC4CC4)C3)c(C(F)(F)F)cc2=O)cc2c1CCC2 (some centres unmarked) [Trifluoroacetate salt of compound 15-2]", "reportedValue": "> 9.00"}
{"compound": "Cc1cc(F)cc(C)c1-c1c(F)c(C(CC(=O)O)NC(=O)[C@H](CC(C)C)n2cc(CC3CN(C(C)C)C3)c(C(F)(F)F)cc2=O)c(F)c2c1CCC2 (some centres unmarked) [Trifluoroacetate salt of compound 32-2]", "reportedValue": "> 9.00"}
{"compound": "Cc1ccc(F)c(C)c1-c1c(F)c(C(CC(=O)O)NC(=O)[C@H](CC(C)C)n2cc(CCN(C)C)c(C(F)(F)F)cc2=O)c(F)c2c1CCC2 (some centres unmarked) [Trifluoroacetate salt of compound 48-2]", "reportedValue": "> 9.00"}
{"compound": "CC#Cc1cc(-c2c(C)cccc2C)c(F)c(C(CC(=O)O)NC(=O)[C@@H](CC(C)C)n2cc(CCN(CC)CC)c(C(F)(F)F)cc2=O)c1F (some centres unmarked) [Trifluoroacetate salt of compound 12-2]", "reportedValue": "> 9.30"}
{"compound": "CC#Cc1cc(-c2c(C)cccc2C)c(F)c(C(CC(=O)O)NC(=O)[C@H](CC(C)C)n2cc(CCC3CCCN3C)c(C(F)(F)F)cc2=O)c1F (some centres unmarked) [Trifluoroacetate salt of compound 29-2]", "reportedValue": "> 9.00"}

The reported measurements were obtained from patent EP4585587A1.
